- test_target: Enoyl-[acyl-carrier-protein] reductase [NADH] FabI (Escherichia coli K-12, UniProt P0AEK4)
- Sequence (P0AEK4 whole entry): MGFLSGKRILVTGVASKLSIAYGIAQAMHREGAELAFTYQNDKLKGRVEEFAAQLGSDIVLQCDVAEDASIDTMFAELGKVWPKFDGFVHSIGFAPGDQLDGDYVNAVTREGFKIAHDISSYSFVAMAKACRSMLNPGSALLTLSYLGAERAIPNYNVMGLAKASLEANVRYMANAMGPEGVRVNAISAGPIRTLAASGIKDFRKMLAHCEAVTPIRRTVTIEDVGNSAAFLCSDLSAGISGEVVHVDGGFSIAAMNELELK
Hi there, I'd appreciate the recorded IC50 for every entry that follows.
Give bare numbers, in nM.

# map each molecule to its IC50
1. Cc1c(CN(C)C(=O)/C=C/c2cnc3c(c2)NCCC(=O)N3)sc2ccc(F)cc12
2. Cc1c(CN(C)C(=O)/C=C/c2cnc3c(c2)CNCCN3)sc2ccccc12
3. Cc1c(CN(C)C(=O)/C=C/c2cnc3c(c2)NCCCN3)oc2ccccc12
4. Cc1c(CN(C)C(=O)/C=C/c2cnc3c(c2)CNC(=O)CN3)oc2ccccc12

A.
1. 25
2. 9
3. 12
4. 39

* * *

- experiment_summary: physchem
- condition_summary: aqueous, pH 4
- Description: Aqueous solubility at pH 4.0
Label TRUE for high-side solubility (at or above 30 µg/mL) and FALSE for low-side solubility (below it).

>>> class_assignment("Cc1c(CN(C)C(=O)/C=C/c2cnc3c(c2)NCCC(=O)N3)sc2ccc(F)cc12")
"TRUE"
>>> class_assignment("CN(Cc1cc2ccccc2n1C)C(=O)/C=C/c1cnc2c(c1)CNCC(=O)N2")
"TRUE"
>>> class_assignment("Cc1c(CN(C)C(=O)/C=C/c2cnc3c(c2)CCC(=O)N3)sc2ccccc12")
"FALSE"
>>> class_assignment("Cc1c(CN(C)C(=O)/C=C/c2cnc3c(c2)CNCCCN3)oc2ccccc12")
"TRUE"

Q. Evaluate `CN(Cc1cc2ccccc2n1C)C(=O)/C=C/c1cnc2c(c1)CCC(=O)N2` : solubility at minimum 30 µg/mL?
A. FALSE

Q. Evaluate `Cc1c(CN(C)C(=O)/C=C/c2cnc3c(c2)CNCCN3)oc2ccccc12` : solubility at minimum 30 µg/mL?
A. TRUE

Q. Evaluate `Cc1c(CN(C)C(=O)/C=C/c2cnc3c(c2)CNCC(=O)N3)oc2ccccc12` : solubility at minimum 30 µg/mL?
A. TRUE

Q. Evaluate `CN(Cc1cc2ccccc2n1C)C(=O)/C=C/c1cnc2c(c1)NCCC(=O)N2` : solubility at minimum 30 µg/mL?
A. FALSE

Q. Evaluate `Cc1c(CN(C)C(=O)/C=C/c2cnc3c(c2)NCCCN3)oc2ccccc12` : solubility at minimum 30 µg/mL?
A. TRUE

* * *

Below are compounds with their IC50 as measured on Enoyl-[acyl-carrier-protein] reductase [NADH] FabI (Escherichia coli K-12, UniProt P0AEK4).
Answers are plain numbers, in nM.

Examples with answers:
>>> value_measured("Cc1c(CN(C)C(=O)/C=C/c2cnc3c(c2)CNC(=O)CCN3)oc2ccccc12")
30
>>> value_measured("CN(Cc1cc2ccccc2n1C)C(=O)/C=C/c1cnc2c(c1)NCCC(=O)N2")
136
>>> value_measured("Cc1c(CN(C)C(=O)/C=C/c2cnc3c(c2)CCC(=O)N3)sc2ccccc12")
64
>>> value_measured("Cc1c(CN(C)C(=O)/C=C/c2cnc3c(c2)CNCC(=O)N3)oc2ccccc12")
29

Q. Input `CN(Cc1cc2ccccc2n1C)C(=O)/C=C/c1cnc2c(c1)CCC(=O)N2` , output reported IC50.
A. 150

* * *

- Tested on: Staphylococcus aureus
- experiment_summary: microbe, parasite or virus in culture
- condition_summary: 29213
- Description: Antibacterial activity against Staphylococcus aureus 29213 by microdilution method
readout_kind: MIC (µg/mL)
Answers are plain numbers, in µg/mL.

>>> value_measured("Cc1c(CN(C)C(=O)/C=C/c2cnc3c(c2)NCCC(=O)N3)[nH]c2ccccc12")
0.031

Q. Input `Cc1c(CN(C)C(=O)/C=C/c2cnc3c(c2)CNCCCN3)oc2ccccc12` , output reported MIC.
A. 0.25

* * *

- experiment_summary: physchem
- condition_summary: aqueous, pH 7.4
- Description: Aqueous solubility at pH 7.4
Bucketed by reported solubility, buckets being A (below 20 µg/mL), B (20 µg/mL to below 40 µg/mL), C (40 µg/mL or more)

Below, 6 compounds whose answers are already recorded.
>>> class_assignment("CN(Cc1cc2ccccc2n1C)C(=O)/C=C/c1cnc2c(c1)NCCC(=O)N2")
"B"
>>> class_assignment("Cc1c(CN(C)C(=O)/C=C/c2cnc3c(c2)CNC(=O)CCN3)oc2ccccc12")
"A"
>>> class_assignment("CN1CC(=O)Nc2ncc(/C=C/C(=O)N(C)Cc3cc4ccccc4n3C)cc2C1")
"A"
>>> class_assignment("Cc1c(CN(C)C(=O)/C=C/c2cnc3c(c2)CNCCN3)sc2ccccc12")
"B"
>>> class_assignment("Cc1c(CN(C)C(=O)/C=C/c2cnc3c(c2)CNCCCN3)oc2ccccc12")
"C"
>>> class_assignment("Cc1c(CN(C)C(=O)/C=C/c2cnc3c(c2)CCC(=O)N3)sc2ccccc12")
"A"

Q. For this compound, which bin applies? `Cc1c(CN(C)C(=O)/C=C/c2cnc3c(c2)CNCCN3)oc2ccccc12`
A. C

Q. For this compound, which bin applies? `Cc1c(CN(C)C(=O)/C=C/c2cnc3c(c2)NCCC(=O)N3)[nH]c2ccccc12`
A. B

Q. For this compound, which bin applies? `CN(Cc1cc2ccccc2n1C)C(=O)/C=C/c1cnc2c(c1)CCC(=O)N2`
A. A

Q. For this compound, which bin applies? `Cc1c(CN(C)C(=O)/C=C/c2cnc3c(c2)NCCC(=O)N3)oc2ccccc12`
A. A

Q. For this compound, which bin applies? `CN(Cc1cc2ccccc2n1C)C(=O)/C=C/c1cnc2c(c1)CNCC(=O)N2`
A. C

Q. For this compound, which bin applies? `Cc1c(CN(C)C(=O)/C=C/c2cnc3c(c2)NCCC(=O)N3)sc2ccc(F)cc12`
A. B

Q. For this compound, which bin applies? `Cc1c(CN(C)C(=O)/C=C/c2cnc3c(c2)NCCCN3)oc2ccccc12`
A. B

* * *

Hi there, I'd appreciate the recorded MIC for every entry that follows.
- Test system: Staphylococcus aureus
- experiment_summary: microbe, parasite or virus in culture
- condition_summary: 29213

>>> value_measured("Cc1c(CN(C)C(=O)/C=C/c2cnc3c(c2)CNCC(=O)N3)oc2ccccc12")
"≤ 0.063 µg/mL"
>>> value_measured("Cc1c(CN(C)C(=O)/C=C/c2cnc3c(c2)NCCC(=O)N3)oc2ccccc12")
"≤ 0.016 µg/mL"
>>> value_measured("CN(Cc1cc2ccccc2n1C)C(=O)/C=C/c1cnc2c(c1)CCC(=O)N2")
"≤ 0.016 µg/mL"
>>> value_measured("Cc1c(CN(C)C(=O)/C=C/c2cnc3c(c2)CNC(=O)CCN3)oc2ccccc12")
"≤ 0.016 µg/mL"

Here is another compound to look at.
Q. Input `Cc1c(CN(C)C(=O)/C=C/c2cnc3c(c2)NCCCN3)oc2ccccc12` , output reported MIC.
A. ≤ 0.016 µg/mL

* * *

- System: Staphylococcus aureus
- experiment_summary: microbe, parasite or virus in culture
- condition_summary: 29213
readout_kind: MIC

>>> value_measured("Cc1c(CN(C)C(=O)/C=C/c2cnc3c(c2)CNCCN3)sc2ccccc12")
"≤ 0.016 µg/mL"

# map each compound to its MIC
1. Cc1c(CN(C)C(=O)/C=C/c2cnc3c(c2)CNC(=O)CN3)oc2ccccc12
2. Cc1c(CN(C)C(=O)/C=C/c2cnc3c(c2)NCCC(=O)N3)sc2ccc(F)cc12

A.
1: ≤ 0.063 µg/mL; 2: ≤ 0.016 µg/mL
